Taken from the Human Domainome abundance scans (Beltran et al. 2025).

B1: POU domain, class 3, transcription factor 3, residues 408 to 463; numbered along this chain, P20264 (parent)
chain: KKRTSIEVSVKGALESHFLKCPKPSAQEITNLADSLQLEKEVVRVWFCNRRQKEKR

Variants of: B1
measurement description: abundance fitness (aPCA) (normalised: wild type 0, dead -1); higher = more abundant; growth selection in yeast, the domain comes from the species named
test parameters: Homo sapiens
I would appreciate it if you labelled entries Y when abundance fitness is -0.4 or higher, otherwise N.

Tell me whether abundance fitness is at least -0.4 here: V8A Y

Hi team, for S35P , is the recorded abundance fitness at or above -0.4? N

Is abundance fitness at least -0.4? Consider E28G Y

Can I6A be said to have abundance fitness at or above -0.4? Y

Quick check: does L14T have abundance fitness greater than or equal to -0.4? N

Hello, I need to know if Q27I has measured abundance fitness not below -0.4. Thanks! Y

Would you say L32R shows abundance fitness at minimum -0.4? N

Kindly determine if abundance fitness recorded for S25Q is above or exactly -0.4. N

Record K1S ; criterion: abundance fitness no lower than -0.4. Met? Y

Could you please find out whether A13T has abundance fitness that meets -0.4 or exceeds it? Y

Can N49Y be said to have abundance fitness at or above -0.4? Y

Test whether the variant P24T records abundance fitness of -0.4 or higher. N

Quick check: does E54S have abundance fitness greater than or equal to -0.4? Y

Does the variant K55V have recorded abundance fitness that is -0.4 or more? Y

Kindly determine if abundance fitness recorded for E7H is above or exactly -0.4. Y

Does the variant N31S have recorded abundance fitness that is -0.4 or more? Y

Can V45N be said to have abundance fitness at or above -0.4? Y

Given S25Y , state whether its abundance fitness is at least -0.4. N

Could you verify whether the entry R44W shows abundance fitness of no less than -0.4? Y

Please check the record K1A and state if its abundance fitness is at or above -0.4. Y

For this variant, is measured abundance fitness -0.4 or higher? K23T Y

Hi, just wondering whether R56S shows abundance fitness of -0.4 or higher. Y
